# SYSTEM: T1, sRAGE (V-C1-C2) lot LP08062 (human, UniProt Q15109 23-331, limits assumed)
# T1 construct: domain: V-C1-C2; also called Human RAGE; LP08062 (Rage)
# T1 sequence (Q15109 23-331 limits assumed): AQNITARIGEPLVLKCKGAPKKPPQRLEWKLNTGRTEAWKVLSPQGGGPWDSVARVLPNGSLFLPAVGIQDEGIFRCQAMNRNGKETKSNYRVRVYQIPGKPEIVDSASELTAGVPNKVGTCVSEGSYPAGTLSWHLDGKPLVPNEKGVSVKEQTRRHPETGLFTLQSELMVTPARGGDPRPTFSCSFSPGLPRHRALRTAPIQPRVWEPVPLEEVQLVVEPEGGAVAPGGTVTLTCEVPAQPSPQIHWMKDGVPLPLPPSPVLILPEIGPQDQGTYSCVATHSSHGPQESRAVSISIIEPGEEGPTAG
# PROCEDURE TEXT: SPR (Biacore), mAb captured on anti-mouse Fc, sRAGE 15 nM, Langmuir 1:1
ATTRIBUTE MEASURED: koff (s⁻¹)
Give just the numeric value; s⁻¹ need not be written.

Please report the recorded koff for 347 RAGE-1 (antibody, V domains shown, Anti-RAGE monoclonal antibody from a hybridoma, captured by anti-mouse Fc) VH: QVQLQQSGAELAKPGASVKMSCRASGYTFTDYWMHWVKQRPGQGLEWIGFINPSTVYTEYIPKFKDKATLTADKSSSTAYMQLSSLTSEDSAVYYCARSDGGWYFDVWGAGTTVTVSS VL: DIQMTQSSSYLSVSLGGRVTITCKASDRINYWLAWYQQKPGNAPRLLISGATTLETGVPSRFSGSGSGKDYTLSITSLQTEDVATYYCQQYWSTPYTFGGGTKLELK .
0.00227
